Format: in vivo, human
cond: human, plasma, oral, C24_d5, Median, 250 mg group: 750 mg on day 1 and 250 mg on days 2–5; 24 h postdose on day 5
reportedProperty: concentration at 24 h (ng/mL)
Respond numerically; units are ng/mL and should not be typed.

Item under review: `Cn1cnc(Cn2c(=O)[nH]/c(=N\c3cc4cn(C)nc4cc3Cl)n(Cc3cc(F)c(F)cc3F)c2=O)n1` . Reported concentration at 24 h?
40800

----------
Assay type: in vivo, human
cond: human, plasma, oral, AUC_d5, Median, 125 mg group: 375 mg on day 1 and 125 mg on days 2–5; day 5
reportedProperty: AUC
A bare number is not enough; add the unit after it.

Item under review: Cn1cnc(Cn2c(=O)[nH]/c(=N\c3cc4cn(C)nc4cc3Cl)n(Cc3cc(F)c(F)cc3F)c2=O)n1 [ensitrelvir] . Reported AUC?
568 µg·h/mL
